# target_desc: T1, human high affinity trimeric IL-2 receptor (CD25/CD122/CD132) (human, UniProt P01589 22-272; P14784 27-551; P31785 23-369)
# T1 sequence 1: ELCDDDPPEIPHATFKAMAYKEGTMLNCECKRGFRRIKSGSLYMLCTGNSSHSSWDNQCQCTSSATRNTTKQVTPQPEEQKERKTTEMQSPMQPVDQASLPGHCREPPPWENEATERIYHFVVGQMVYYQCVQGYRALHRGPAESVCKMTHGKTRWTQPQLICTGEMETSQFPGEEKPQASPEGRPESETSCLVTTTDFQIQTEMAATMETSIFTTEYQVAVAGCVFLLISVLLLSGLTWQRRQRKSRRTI
# T1 sequence 2: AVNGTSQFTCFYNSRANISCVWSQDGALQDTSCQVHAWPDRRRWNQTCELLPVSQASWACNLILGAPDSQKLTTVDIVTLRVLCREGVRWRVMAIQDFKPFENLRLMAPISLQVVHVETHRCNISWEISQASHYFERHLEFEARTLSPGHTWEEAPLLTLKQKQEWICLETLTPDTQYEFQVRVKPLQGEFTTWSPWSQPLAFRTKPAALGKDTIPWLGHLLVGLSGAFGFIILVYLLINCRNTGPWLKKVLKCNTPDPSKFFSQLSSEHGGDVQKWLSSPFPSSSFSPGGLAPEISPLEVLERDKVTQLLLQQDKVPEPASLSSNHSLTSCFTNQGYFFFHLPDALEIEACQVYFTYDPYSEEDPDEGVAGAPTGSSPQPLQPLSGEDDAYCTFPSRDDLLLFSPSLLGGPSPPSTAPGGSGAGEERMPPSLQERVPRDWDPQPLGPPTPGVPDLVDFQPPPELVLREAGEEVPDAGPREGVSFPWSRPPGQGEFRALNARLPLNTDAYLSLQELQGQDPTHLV
# T1 sequence 3: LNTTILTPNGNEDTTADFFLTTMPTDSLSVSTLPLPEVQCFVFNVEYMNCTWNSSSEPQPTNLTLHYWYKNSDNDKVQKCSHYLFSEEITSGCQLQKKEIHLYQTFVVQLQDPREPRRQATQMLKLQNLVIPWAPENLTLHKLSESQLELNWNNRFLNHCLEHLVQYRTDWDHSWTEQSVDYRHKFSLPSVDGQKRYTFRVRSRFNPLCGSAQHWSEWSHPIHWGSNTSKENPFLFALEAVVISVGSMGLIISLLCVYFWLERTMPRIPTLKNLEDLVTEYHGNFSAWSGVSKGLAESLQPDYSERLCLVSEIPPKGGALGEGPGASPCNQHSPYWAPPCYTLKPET
# experimental_protocol: cell-based or functional assay
Listed here: items and their measured pSTAT5 ratio YT CD25/YT, dilution factor 8, lower table.
recorded_metric: pSTAT5 ratio YT CD25/YT, dilution factor 8, lower table

[
  {
    "binder": "RSH (ligand) cytokine: APTSSSTKKTQLQLEHLRLDLSMILNGINNYKNPKLTRMLTFKFYMPKKATELKHLQCLEEELKPLEEVLNLAQSKNFHLRPRDLISNINVIVLELKGSETTFMCEYADETATIVEFLNRWITFCHSIISTLT",
    "readout_value": 1.1
  },
  {
    "binder": "RIH (ligand) cytokine: APTSSSTKKTQLQLEHLRLDLIMILNGINNYKNPKLTRMLTFKFYMPKKATELKHLQCLEEELKPLEEVLNLAQSKNFHLRPRDLISNINVIVLELKGSETTFMCEYADETATIVEFLNRWITFCHSIISTLT",
    "readout_value": 2.4
  },
  {
    "binder": "RVH (ligand) cytokine: APTSSSTKKTQLQLEHLRLDLVMILNGINNYKNPKLTRMLTFKFYMPKKATELKHLQCLEEELKPLEEVLNLAQSKNFHLRPRDLISNINVIVLELKGSETTFMCEYADETATIVEFLNRWITFCHSIISTLT",
    "readout_value": 1.4
  },
  {
    "binder": "RHH (ligand) cytokine: APTSSSTKKTQLQLEHLRLDLHMILNGINNYKNPKLTRMLTFKFYMPKKATELKHLQCLEEELKPLEEVLNLAQSKNFHLRPRDLISNINVIVLELKGSETTFMCEYADETATIVEFLNRWITFCHSIISTLT",
    "readout_value": 2.7
  },
  {
    "binder": "RMH (ligand) cytokine: APTSSSTKKTQLQLEHLRLDLMMILNGINNYKNPKLTRMLTFKFYMPKKATELKHLQCLEEELKPLEEVLNLAQSKNFHLRPRDLISNINVIVLELKGSETTFMCEYADETATIVEFLNRWITFCHSIISTLT",
    "readout_value": 1.1
  },
  {
    "binder": "RNH (ligand) cytokine: APTSSSTKKTQLQLEHLRLDLNMILNGINNYKNPKLTRMLTFKFYMPKKATELKHLQCLEEELKPLEEVLNLAQSKNFHLRPRDLISNINVIVLELKGSETTFMCEYADETATIVEFLNRWITFCHSIISTLT",
    "readout_value": 2.6
  },
  {
    "binder": "YEH (ligand) cytokine: APTSSSTKKTQLQLEHLYLDLEMILNGINNYKNPKLTRMLTFKFYMPKKATELKHLQCLEEELKPLEEVLNLAQSKNFHLRPRDLISNINVIVLELKGSETTFMCEYADETATIVEFLNRWITFCHSIISTLT",
    "readout_value": 1
  }
]
